- procedure.summary: Mouse pharmacokinetic study of oral GE with and without ketoconazole, plasma with and without β-glucuronidase treatment
- Assay type: in vivo, male mice (C57BL6J)
- applied.conditions: male, C57BL6J; mouse plasma; 250 mg/kg GE with 50 mg/kg ketoconazole oral; 0.087 h; −βgd
property: concentration at 0.087 h (ng/mL)
// note: answer is a bare numeric in ng/mL

CCCCC[C@H](O)CC(=O)CCc1ccc(O)c(OC)c1 = 0.31

concentration at 0.087 h reading for CCCCCCCCCC(O)CC(=O)CCc1ccc(O)c(OC)c1 (stereo not shown) [10G, 10-gingerol] : 0

concentration at 0.087 h reading for CCCCC/C=C/C(=O)CCc1ccc(O)c(OC)c1 : 0.05

concentration at 0.087 h reading for CCCCCCCC(O)CC(=O)CCc1ccc(O)c(OC)c1 (stereo not shown) : 0.48
